pIC50: −log10 of the molar value.
In what follows, each item is paired with its pIC50 for JAK3 kinase (Homo sapiens, UniProt P52333).

compound: C=CC(=O)N1CC(CNc2nc(Nc3cc(C(C)C)no3)nc3ccsc23)C1
pIC50: 7.00 to 8.00
//
compound: C=CC(=O)N1CCC[C@@H](Nc2nc(Nc3cn[nH]c3)nc3ccsc23)C1
pIC50: 7.00 to 8.00
//
compound: C=CC(=O)N1CC(CNc2nc(Nc3nccs3)nc3ccsc23)C1
pIC50: 6.00 to 7.00
//
compound: C=CC(=O)N1CC[C@@H](Nc2nc(Nc3cnn(CCCOC)c3)nc3ccsc23)C1
pIC50: 7.00 to 8.00

So what pIC50 did C=CC(=O)N1CCC[C@@H](Nc2nc(Nc3cnn(C(C)C)c3)nc3ccsc23)C1 get with JAK3 kinase (Homo sapiens, UniProt P52333)?
7.00 to 8.00

So what pIC50 did C=CC(=O)N1CCC[C@@H](Nc2nc(Nc3cc(C)ns3)nc3ccsc23)C1 get with JAK3 kinase (Homo sapiens, UniProt P52333)?
≥ 8.00

So what pIC50 did C=CC(=O)N1CC[C@@H](Nc2nc(Nc3cnn(CC)c3)nc3ccsc23)C1 get with JAK3 kinase (Homo sapiens, UniProt P52333)?
7.00 to 8.00

So what pIC50 did C=CC(=O)N1CCC[C@@H](Nc2nc(Nc3cnn(C)c3)nc3ccoc23)C1 get with JAK3 kinase (Homo sapiens, UniProt P52333)?
7.00 to 8.00

---

In what follows, each item is paired with its IC50 for JAK3 kinase (Homo sapiens).

compound: C=CC(=O)N1CCC[C@@H](Nc2nc(Nc3cnn(C)c3)nn3cccc23)C1 [Example 135]
IC50: 10 to 100 nM

So what IC50 did C=CC(=O)N1CC(CNc2nc(Nc3cnn(C)c3)nc3ccoc23)C1 [Example 92] get with JAK3 kinase (Homo sapiens)?
100 to 1000 nM

So what IC50 did C=CC(=O)N1CC[C@@H](Nc2nc(Nc3cc(C)ns3)nc3ccsc23)C1 [Example 132] get with JAK3 kinase (Homo sapiens)?
≤ 10 nM

So what IC50 did C=CC(=O)N1CC[C@@H](Nc2nc(Nc3cc(C)no3)nc3ccsc23)C1 [Example 79] get with JAK3 kinase (Homo sapiens)?
10 to 100 nM

So what IC50 did C=CC(=O)N1CC[C@@H](Nc2nc(Nc3cnn(C)c3)nc3sccc23)C1 [Example 101] get with JAK3 kinase (Homo sapiens)?
100 to 1000 nM

So what IC50 did C=CC(=O)N1CC(CNc2nc(Nc3cc(C)ns3)nc3ccsc23)C1 [Example 71] get with JAK3 kinase (Homo sapiens)?
≤ 10 nM

So what IC50 did C=CC(=O)N1CCC[C@@H](Nc2nc(Nc3cc(C)ns3)nc3ccoc23)C1 [Example 96] get with JAK3 kinase (Homo sapiens)?
≤ 10 nM

So what IC50 did C=CC(=O)N1CCC[C@@H](Nc2nc(Nc3cnn(C)c3)nc3sccc23)C1 [Example 103] get with JAK3 kinase (Homo sapiens)?
100 to 1000 nM

So what IC50 did C=CC(=O)N1CC[C@@H](Nc2nc(Nc3cnn(C4CCOCC4)c3)nc3ccsc23)C1 [Example 125] get with JAK3 kinase (Homo sapiens)?
≤ 10 nM

So what IC50 did C=CC(=O)N1CCC[C@@H](Nc2nc(Nc3cnn(C4CCC4)c3)nc3ccsc23)C1 [Example 129] get with JAK3 kinase (Homo sapiens)?
10 to 100 nM
